# test.details: chemical genetic growth profiling, strain panel (AID 1159580);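 note: tested at 20 µM; growth read once vehicle control cultures reached saturation at 30 °C; 1 = growth at the plate median or of vehicle wells; lower values mean less growth of the strain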
# condition.description: S. cerevisiae deletion strains, growth OD, locus YPR106W, strain ISR1, active compounds read low
About 2,000 (36%) of roughly 5,500 compounds were called active. Not shown: some 18% with an inconclusive outcome. This is one part of the list.
measurement.label: normalized growth
Give a plain numeric answer without units written out.

Sample answers from the record:
compound: CC(=O)CSc1nnc(-c2ccc(C(C)(C)C)cc2)n1-c1ccc(Cl)cc1
numeric.result: 0.974
--
compound: Cc1c(Cc2ccc(F)cc2)c(=O)oc2cc(O)ccc12
numeric.result: 0.984
--
compound: OC1(C(F)(F)F)CC(C23CC4CC(CC(C4)C2)C3)=NN1 (stereo not given)
numeric.result: 0.915
--
compound: COc1cc(NC(=S)NNS(=O)(=O)c2ccc(C)cc2)c(OC)cc1Cl
numeric.result: 0.977
--
compound: Cc1ccc(-c2csc(-c3cccnc3)n2)c(C)c1
numeric.result: 0.957

Q: # lookup: normalized growth of Cc1ccc2nc(-c3ccc(Cl)cc3)cn2c1
A: 0.964

Q: Next compound: COc1cc(NC(=S)NC(=O)c2ccccc2)c(OC)cc1Cl
A: 0.989

Q: Now try CC(C)(C)CN/C(C#N)=C(/C#N)NCc1cccc(Cl)c1 .
A: 0.989

Q: How about S=C(Nc1ccc(Cl)cc1Cl)N(c1cccc(Cl)c1)c1nc2ccccc2s1 ?
A: 0.961

Q: Here is the next compound: O=C(NNc1ccccc1F)c1ccno1
A: 0.968

Q: And for Nc1ccccc1SCc1c(Cl)cccc1Cl ?
A: 0.95

Q: Queued: COc1ccc(NNC(=O)c2sc3ccccc3c2Cl)cc1
A: 0.907

Q: Please give the result for Cc1ccc(OCC2SCCN2C(=O)c2ccc(C(F)(F)F)cc2)c([N+](=O)[O-])c1 (stereo not given) too.
A: 1.01

Q: What about this compound? CCOC(=O)CSC(=S)NCc1ccc(C)cc1
A: 0.951

Q: Next compound up: N#Cc1ccc(S(=O)(=O)Nc2ccccc2Oc2ccc(Cl)cc2Cl)cc1
A: 0.96

Q: # iterate: O=c1c(Sc2ccc(Cl)cc2)c(Sc2ccc(Cl)cc2)c1=O
A: 0.978

Q: Can you handle O=S(=O)(Nc1cccc(CCc2ccccn2)c1)c1cc(Cl)c(Cl)cc1Cl next?
A: 0.965

Q: One more compound: O=C(CSc1nnnn1-c1ccccc1)c1ccccc1
A: 0.972

Q: Param item: COc1ccc(CN2CSC(=S)N(Cc3ccc(OC)cc3)C2)cc1
A: 0.983

Q: Next entry: Cc1cc(C(=O)Nc2ccc(Cl)cc2)nn1C(C)(C)C
A: 0.979

Data origin, for the record: PubChem BioAssay AID1159580
